growth inhibition: recorded values
assay: NCI Yeast Anticancer Drug Screen. Data for the mlh1 rad18 strain (AID 175); settings: S. cerevisiae mlh1 rad18 strain growth inhibition; at 50.0 µM (retest, dose inferred, filed as 5.0); stronger effect = higher value
This is part of a sample that, as a whole, favours compounds with a hit. Of some 79,000 tested, about 15% had one in any assay.
assayEndpoint: growth inhibition (%)

>>> observedmeasurement("CCC(CC)N(CCNc1cc(OC)cc2cccnc12)CC(C)C")
10
>>> observedmeasurement("COc1ccc(-c2cn(-c3ccccc3)c3ncnc(N)c23)cc1")
14
>>> observedmeasurement("CC(=O)Oc1ccccc1C(=O)/C=C/c1ccccc1")
98
>>> observedmeasurement("CCCOCCC#N")
-1
>>> observedmeasurement("CCOC(=O)C(Br)c1nc2ccccc2[nH]c1=O (configuration not stated)")
98
>>> observedmeasurement("CC(=O)Nc1ccc(-c2nnc(SCC(=O)Nc3cccc(Cl)c3)o2)cc1")
71
>>> observedmeasurement("Cc1oc2c(c1C(=O)c1ccccc1)C(=O)c1ccccc1C2=O")
99
>>> observedmeasurement("O=[N+]([O-])c1cccc(S(=O)(=O)Nc2cccc3ccccc23)c1")
97
>>> observedmeasurement("CCCCN(CCCC)CC(O)Cc1cc2ccccc2c2ccccc12 (configuration not stated)")
91
>>> observedmeasurement("O=C(Cl)c1ccc(N=Nc2ccccc2)cc1")
27
>>> observedmeasurement("O=C/C(Br)=C\\c1ccccc1")
99
>>> observedmeasurement("COc1ccc(C(=O)C(Br)CS(=O)(=O)c2ccc(C)cc2)cc1 (configuration not stated)")
98

* * *

assay: NCI Yeast Anticancer Drug Screen. Data for the rad50 strain (AID 155);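 also: 0% = growth of vehicle-only cultures of the same strain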; conditions: S. cerevisiae rad50 strain growth inhibition; at 50.0 µM; stronger effect = higher value
Compounds without any hit were thinned out: in the full panel of roughly 79,000, 15% have a hit.
Label 0 if growth inhibition falls below 90%; label 1 in every other case.

>>> labelclass("CN1C(/C=C/c2ccc(O)c3ncccc23)CCC2CCCC(O)C21 (centres undefined)")
1
>>> labelclass("CN(C)CCCc1ccc2oc3ccccc3c2c1")
0
>>> labelclass("CCOc1ccc2nc(C)cc(C)c2c1")
0
>>> labelclass("c1csc(CNCc2cccs2)c1")
0
>>> labelclass("CC(=O)c1c(-c2ccco2)c(C#N)c(=S)n(C2OC(CO)C(O)C(O)C2O)c1-c1ccccc1 (centres undefined)")
0
>>> labelclass("CCCCCC(O)C(C)CO (centres undefined)")
0
>>> labelclass("[N-]=[N+]=Nc1c(-c2ccccc2)c(Cl)nc2ccccc12")
0
>>> labelclass("COc1cc(NS(=O)(=O)c2ccc(NC(C)c3ccc4cccnc4c3O)cc2)nc(OC)n1 (centres undefined)")
1
>>> labelclass("CN(C)c1ccccc1CC(c1c[nH]c2ccccc12)c1c[nH]c2ccccc12")
0
>>> labelclass("O=C(Nc1ccc(NC(=O)Nc2cc(C(=O)Nc3ccc(C4=NCCN4)cc3)ccc2C(=O)Nc2ccc(C3=NCCN3)cc2)cc1)Nc1cc(C(=O)Nc2ccc(C3=NCCN3)cc2)ccc1C(=O)Nc1ccc(C2=NCCN2)cc1")
1
>>> labelclass("CCCCCCCCCCCC(C)N (centres undefined)")
1
>>> labelclass("CC(/C=C/NNC1=NC(c2ccccc2)C(c2ccccc2)=NN1)Sc1ccccc1N (centres undefined)")
1
>>> labelclass("CC1=CC(C2/C(=N/O)C=C(C)CC2(C)C)C(O)C(C)(C)C1 (centres undefined)")
1
